// data source = patent US20030068615A1

subject of test: HIV-1LAI envelope gp120 (Human immunodeficiency virus type 1 group M subtype B)
Type: binding
study conditions: STRL33 amino terminus; 9-mer starting at the first residue of the printed sequence; background subtracted
Please respond with true (1) when measured Binding Results For Window Length (counts bound-background), 9 is strictly beneath 700 counts, and with false (0) in all other cases.

# count of solved cases: 6
- NDSSQEEHQAFLQFS: true (1)
- HEDYGFSSFNDSSQEEHQ: false (0)
- QAFLQFSKV: false (0)
- GFSSFNDSSQEEEQAFLQ: true (1)
- DYHEDYGFSSFNDSSQEE [STRL33 segment 5-22]: false (0)
- AEHDYHEDYGFSSFNDSS: true (1)

Shifting focus to the sequence that follows.
Req: For "YHEDYGFSSFNDSSQEEH" , is the recorded Binding Results For Window Length (counts bound-background), 9 below the cut-off of 700 counts?
Resp: false (0)
